tested on: PC-3; assay: Anticancer activity against human PC-3 cells assessed as inhibition of cell proliferation measured after 72 hrs by MTT assay; format: functional, cell-based; conditions: PC-3, 72 h
# IC50 per record follows
I only need the number, in µM, no unit after it.

Problem: What does the data say about its IC50? Entry: C[C@]12CCC=C[C@@H]1CC[C@@H]1[C@@H]2CC[C@]2(C)/C(=N/O)CC[C@@H]12
Result: 13.8

Problem: Query (compound): C[C@]12CC[C@H]3O[C@H]3[C@@H]1CC[C@@H]1[C@@H]2CC[C@]2(C)/C(=N/O)CC[C@@H]12 ; field requested: IC50
Result: 77.9

Problem: For the compound CC(C)C(=O)Nc1ccc([N+](=O)[O-])c(C(F)(F)F)c1 [FLUTAMIDE] , what IC50 is on record?
Result: 58

Problem: Suppose we examine the compound C[C@]12CCC=C[C@@H]1CC[C@@H]1[C@@H]2CC[C@]2(C)C(=O)CC[C@@H]12 ; what IC50 value has been reported?
Result: 23.1

Problem: Form field: reported IC50 of C[C@]12CC[C@H]3[C@@H](CC[C@@]45O[C@@H]4CCC[C@]35C)[C@@H]1CCC2=O
Result: 62.1

Source: ChEMBL document CHEMBL4825751
